FYI, the data here is from the supplement of paper PMC9112550.

The entries below are paired with their reported shrunken log2 fold change.
# System: Escherichia coli TOP10;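 also: peptides expressed intracellularly from a pBAD plasmid library in pooled LB shake-flask culture, induced with 0.3% L-arabinose, DNA abundance read by NGS, three biological replicates, DESeq2 with apeglm shrinkage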
# test details: shrunken log2 fold change of peptide-encoding DNA abundance (4.5 h post-induction vs induction); higher = less antimicrobial activity (less host growth inhibition)
# measurement context: time post-induction: 4.5 h; library: site-saturation at positions 5, 18, 19, 20
Write no unit; give the number alone.

RRIRARPPRLPRPRPRPMDTPRP
0.143
RRIRCRPPRLPRPRPRPQGTPRP
-0.35
RRIRNRPPRLPRPRPRPWFDPRP
-0.876
RRIRWRPPRLPRPRPRPGKLPRP
-0.368

response.value for `RRIRRRPPRLPRPRPRPIGWPRP` (field: shrunken log2 fold change) = 0.217

response.value for `RRIRKRPPRLPRPRPRPCWCPRP` (field: shrunken log2 fold change) = -0.0214

response.value for `RRIRDRPPRLPRPRPRPCQLPRP` (field: shrunken log2 fold change) = -0.0273

response.value for `RRIRERPPRLPRPRPRPKLAPRP` (field: shrunken log2 fold change) = 0.00329

response.value for `RRIRFRPPRLPRPRPRPAQFPRP` (field: shrunken log2 fold change) = 0.156

response.value for `RRIRARPPRLPRPRPRPDYRPRP` (field: shrunken log2 fold change) = 0.0573
